system-name: SHP2 protein (Homo sapiens)
assay-details: Degradation activity on SHP2 protein in MV-411 cells (Western blot, DC50)
Format: cell-based
Set-up: endogenous in cells
condition-notes: MV411 cells, 24 hours, read-out: Degradation activity for differenct cell lines MV411 (DC50)
Exercise: for every item that follows, state its recorded DC50.

Consider "Cc1ncsc1-c1ccc([C@H](C)NC(=O)[C@@H]2C[C@@H](O)CN2C(=O)[C@@H](NC(=O)c2ccc(N3CCC4(CN(CCCCCOCC(=O)Nc5ccc(Sc6cnc(N7CCC(N)(CF)CC7)cn6)cc5)C4)C3)nn2)C(C)(C)C)cc1" . Its measured DC50 is < 0.1 µM

Consider CC1(N)CCN(c2cnc(Sc3cccc(NC(=O)CCCCCCCCN4CC=C(c5ccc(C(=O)NCc6ccc7c(c6)CN(C6CCC(=O)NC6=O)C7=O)nn5)CC4)c3)cn2)CC1 (stereo not drawn) . Its measured DC50 is < 0.1 µM

Consider CC1(N)CCN(c2cnc(Sc3cccc(NC(=O)CCCCCOC4CC5(CCN(c6ccc(C(=O)NCc7ccc8c(c7)CN(C7CCC(=O)NC7=O)C8=O)nn6)C5)C4)c3)cn2)CC1 (stereo not drawn) . Its measured DC50 is < 0.1 µM

Consider CC1(N)CCN(c2cnc(Sc3cccc(NC(=O)CCCCCCCOC4CCN(c5ncc(C(=O)Nc6cccc7c6CN(C6CCC(=O)NC6=O)C7=O)cn5)CC4)c3)cn2)CC1 (stereo not drawn) . Its measured DC50 is > 1 µM

Consider Cc1nc2cccc(NC(=O)COCCOCCNC(=O)CCC(=O)Nc3cccc(Sc4cnc(N5CCC(C)(N)CC5)cn4)c3)c2c(=O)n1C1CCC(=O)NC1=O (stereo not drawn) . Its measured DC50 is > 1 µM

Consider CC1(N)CCN(c2cnc(Sc3cccc(NC(=O)CCN4CC5(CCN(CCCCCC(=O)NCc6cccc7c6CN(C6CCC(=O)NC6=O)C7=O)C5)C4)c3)cn2)CC1 (stereo not drawn) . Its measured DC50 is 0.1 to 1 µM

Consider CC1(CN)CCN(c2cnc(Sc3cccc(NC(=O)CCC(=O)N4CCN(CCCCCCCCC(=O)NCc5ccc6c(c5)CN(C5CCC(=O)NC5=O)C6=O)CC4)c3Cl)cn2)CC1 (stereo not drawn) . Its measured DC50 is < 0.1 µM

Consider CC1(N)CCN(c2cnc(Sc3cccc(NC(=O)CCCCCCN4CC5(CCN(c6ncc(C(=O)NCc7ccc8c(c7)CN(C7CCC(=O)NC7=O)C8=O)cn6)C5)C4)c3)cn2)CC1 (stereo not drawn) . Its measured DC50 is < 0.1 µM

Consider CC1(N)CCN(c2cnc(Sc3cccc(NC(=O)CCC(=O)NCCOCCOCC(=O)Nc4ccc5c(c4)CN(C4CCC(=O)NC4=O)C5=O)c3)cn2)CC1 (stereo not drawn) . Its measured DC50 is > 1 µM

====

system-name: SHP2 protein (Homo sapiens, UniProt Q06124)
Sequence (Q06124 whole entry): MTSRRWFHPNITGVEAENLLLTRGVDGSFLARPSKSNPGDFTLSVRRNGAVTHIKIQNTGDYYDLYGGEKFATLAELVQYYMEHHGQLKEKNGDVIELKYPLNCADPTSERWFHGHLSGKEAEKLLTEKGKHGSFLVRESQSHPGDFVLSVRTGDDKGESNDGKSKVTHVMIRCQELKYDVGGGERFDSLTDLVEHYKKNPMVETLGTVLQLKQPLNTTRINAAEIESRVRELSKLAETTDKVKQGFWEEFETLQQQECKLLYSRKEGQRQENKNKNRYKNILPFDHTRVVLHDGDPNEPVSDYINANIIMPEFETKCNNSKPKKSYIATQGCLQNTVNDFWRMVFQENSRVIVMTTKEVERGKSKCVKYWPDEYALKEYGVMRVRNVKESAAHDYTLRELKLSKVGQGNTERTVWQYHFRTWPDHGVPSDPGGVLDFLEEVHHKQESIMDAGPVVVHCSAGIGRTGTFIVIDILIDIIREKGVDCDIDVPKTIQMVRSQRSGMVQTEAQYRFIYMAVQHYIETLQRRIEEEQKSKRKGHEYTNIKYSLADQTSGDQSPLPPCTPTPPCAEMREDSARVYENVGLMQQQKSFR
assay-details: Degradation activity on SHP2 protein in MIA Paca-2 cells (Western blot, DC50)
Format: cell-based
Set-up: endogenous in cells; host or cells: MIA Paca-2 cells
condition-notes: read-out: Degradation activity for differenct cell lines MIA Paca-2 (DC50)
property: DC50

Consider C[C@@H]1OCC2(CCN(c3cnc(Sc4cccc(NC(=O)c5ccc(N6CCC(N7CC=C(c8ccc(C(=O)NCc9ccc%10c(c9)CN(C9CCC(=O)NC9=O)C%10=O)nc8)CC7)CC6)cc5)c4)cn3)CC2)[C@@H]1N (stereo partly drawn) [Compound 411] . Its measured DC50 is < 100 nM

Consider CC1(N)CCN(c2cnc(Sc3cccc(NC(=O)c4ccc(N5CCC(N6CCN(c7ccc8c(c7)CN(C7CCC(=O)NC7=O)C8=O)CC6)CC5)c(F)c4)c3)cn2)CC1 (stereo not drawn) [Compound 278] . Its measured DC50 is > 1000 nM

Consider COCC1(N)CCN(c2cnc(Sc3cccc(NC(=O)c4ccc(N5CCC(N6CC=C(c7ccc(C(=O)NCc8ccc9c(c8)CN(C8CCC(=O)NC8=O)C9=O)nc7)CC6)CC5)cc4)c3)cn2)CC1 (stereo not drawn) [Compound 434] . Its measured DC50 is < 100 nM
